Kindly supply the reported melting point values for the records listed here.

May I ask what melting point has been recorded for Clc1nc(-n2cnc(-c3ccccc3)c2-c2ccccc2)c2ccccc2c1-c1ccccc1 ?
195 to 196 °C

May I ask what melting point has been recorded for CC(=O)N1CC(NC(=O)Nc2cccc(C)c2)C(=O)N(CC(=O)c2ccccc2C)c2ccccc21 (centres undefined) ?
215 to 217 °C

May I ask what melting point has been recorded for COC(=O)CNc1cccc(I)c1 ?
83 °C

May I ask what melting point has been recorded for Cc1oc(-c2ccccc2)nc1COc1cncc(COc2ccc(CC(=O)O)cc2)c1 ?
141 to 142 °C

May I ask what melting point has been recorded for Nc1nc(-c2ccco2)nc2ccccc12 ?
219 to 221 °C

May I ask what melting point has been recorded for CCC(=NOCc1ccc(Cl)cc1)c1cc(Cl)ccc1N(C(C)=O)S(=O)(=O)C(F)(F)F ?
64 to 66 °C

May I ask what melting point has been recorded for CCOC(=O)C1=C(C)NC(CSc2ncccn2)=C(C(=O)OCC)C1c1cccc([N+](=O)[O-])c1 (centres undefined) ?
115 to 117 °C

May I ask what melting point has been recorded for O=C(Cl)Oc1ccc(Cl)c(Cl)c1 ?
51 to 53 °C

May I ask what melting point has been recorded for CN1CC(C(=O)CN2CCOCC2)CC2c3cccc4c3c(cn4C)CC21 (centres undefined) ?
198 to 200 °C

May I ask what melting point has been recorded for CCC1=CC(c2cccc([N+](=O)[O-])c2)C2=C(CCCC2=O)N1 (centres undefined) ?
182 to 184 °C

May I ask what melting point has been recorded for CC1=C2CCN(CCC(N)=O)CC2c2ccccc21 (centres undefined) ?
169 to 170 °C

May I ask what melting point has been recorded for Cc1cc(Oc2ncc(C(F)(F)F)cc2Cl)nn1C(=O)N(C)C ?
102 to 104 °C

May I ask what melting point has been recorded for COC(=O)NCCNC(=O)c1cc(C)c(C(c2cc(F)ccc2F)S(=O)(=O)c2ccc(F)cc2)cn1 (centres undefined) ?
167 to 169 °C

May I ask what melting point has been recorded for CSc1ncc(C(C)c2cccnc2)c(=O)[nH]1 (centres undefined) ?
201 to 204 °C

May I ask what melting point has been recorded for COCCc1nc2c(N)nc3ccccc3c2n1CCCCC(=O)N1CCOCC1 ?
128 to 129 °C

May I ask what melting point has been recorded for COC1(OC)CC(c2ccccc2)N(O)C(c2ccccc2)C1 (centres undefined) ?
172 to 175 °C

May I ask what melting point has been recorded for CC(=O)NC[C@H]1CN(c2ccc(N3CCC(n4nnc(N5CCN(C(C)=O)CC5)n4)CC3)c(F)c2)C(=O)O1 ?
216 to 218 °C

May I ask what melting point has been recorded for Nc1c(-c2csc(-c3ccncc3)n2)c(=O)[nH]c2ccc(Cl)cc12 ?
> 220 °C

May I ask what melting point has been recorded for Clc1ncnc2c1N(C1CC=CC1)CN2 ?
124 to 126 °C

May I ask what melting point has been recorded for CC1NC(=O)NN=C1c1ccc(NCc2cccnc2)cc1 (centres undefined) ?
254 to 256 °C

May I ask what melting point has been recorded for CCc1ccc(S(=O)(=O)NC(C)(C)C)s1 ?
38 °C

May I ask what melting point has been recorded for CCOC(=O)c1cc2c3cc4ccccc4cc3ccc2n1C ?
141 to 144 °C

May I ask what melting point has been recorded for COC(=O)c1ccc2c(c1)C(=O)NC(C(Cl)(Cl)Cl)O2 (centres undefined) ?
218 to 220 °C

May I ask what melting point has been recorded for O=C1CC(CI)C(=O)N1c1ccc(F)cc1 (centres undefined) ?
156 °C

May I ask what melting point has been recorded for CCOC(=O)c1[nH]c(C)c(C)c1CC(C)C ?
109 to 111 °C

May I ask what melting point has been recorded for O=C1N(CCCCN2CCN(c3n[nH]c4ccccc34)CC2)CSC12CCCC2 ?
166 to 168 °C

May I ask what melting point has been recorded for Cc1ccc(-c2ccnc3c(C(=O)c4cccs4)cnn23)cc1NC(=O)OC(C)C ?
198 to 200 °C

May I ask what melting point has been recorded for CCCCn1c(=O)n2cnnc2c2[nH]c(-c3cc(S(=O)(=O)N4CCN(C(C)(C)CO)CC4)ccc3OCCC)nc21 ?
237 °C

May I ask what melting point has been recorded for C(#Cc1ccc(-c2nc3ccccc3s2)cc1)c1ccccc1 ?
172 to 173 °C

May I ask what melting point has been recorded for CN(C)C(=O)C(c1ccccc1)(c1ccccc1)C1CCNC1 (centres undefined) ?
159 to 160 °C

May I ask what melting point has been recorded for c1ccc(CNc2ccncc2)cc1 ?
108 to 110 °C

May I ask what melting point has been recorded for Cc1cc(C)c(Nc2nc(N(C)C)ncc2S(=O)(=O)c2cccc(OCc3ccccc3)c2)c(C)c1 ?
52 to 58 °C

May I ask what melting point has been recorded for CC1(CCCn2cc(C=O)c3ccccc32)OCCO1 ?
52 to 55 °C

May I ask what melting point has been recorded for COc1ccc(C2=NN(C3CCN(S(=O)(=O)c4ccc(C)cc4)CC3)C(=O)[C@H]3CC=CC[C@@H]23)cc1Cl (relative stereo) ?
198 to 199 °C

May I ask what melting point has been recorded for Cc1nc(CN(C)C)n(-c2ccc(Cl)cc2C(=O)c2ccccc2Cl)c1CO ?
164 to 166 °C

May I ask what melting point has been recorded for O=c1[nH]c(=S)c(C2c3ccccc3C=Cc3ccccc32)cn1-c1ccc(Sc2n[nH]c(C(F)(F)F)n2)nn1 ?
165 °C

May I ask what melting point has been recorded for CCOC(=O)c1ccc(-c2nc(O)c(C)s2)cc1 ?
207 to 208 °C

May I ask what melting point has been recorded for COC(=O)C(C)(C)Cc1c(SC(C)(C)C)c2cc(OCc3ccc4ccccc4n3)ccc2n1Cc1ccc(Cl)cc1 ?
166 to 167 °C

May I ask what melting point has been recorded for COCCOc1ccc(/C=C(\C)C(=O)NS(=O)(=O)C(F)(F)F)c(Oc2ncc(C(F)(F)F)cc2Cl)c1 ?
146 to 147 °C
